Source listed as PubChem BioAssay (NCI).

System: MCF7 breast
assay-explanation: NCI-60 one-dose screen, 48 h (100 = growth as untreated, 0 = no growth, -100 = all killed)
condition-set: 10 µM
About 83,000 compounds went through this panel and 20% of them were active in at least one assay; those are over-represented in the sample as a whole.
Please assign Not satisfied whenever growth is at or above 20%, and Satisfied whenever it is below.

*Q* A record lists COc1ccc2nc3cc(Cl)ccc3c(NCCNCC(C)O)c2c1 (stereo not given) . Is its growth below 20%?
*A* Satisfied

*Q* A record lists O=C(Nc1cccc(-n2cc(-c3ccncc3)c(-c3cc(O)cc(Cl)c3)n2)c1)c1ccc(N2CCOCC2)c(C(F)(F)F)c1 . Is its growth below 20%?
*A* Not satisfied

*Q* A record lists CC(C)(C)c1cc(Br)cc(C(C)(C)C)c1O . Is its growth below 20%?
*A* Not satisfied

*Q* A record lists Cn1c([N+](=O)[O-])cnc1/C=C1\Oc2cc(Cl)ccc2C1=O . Is its growth below 20%?
*A* Satisfied

*Q* A record lists O=C1c2ccc3c4c(ccc(c24)C(=O)N1CCNCc1ccccc1)C(=O)N(CCNCc1ccccc1)C3=O . Is its growth below 20%?
*A* Satisfied

*Q* A record lists COc1cccc(C(=O)Nc2ccc(CN3CCc4nc5cc(OC)c(OC)cc5cc43)cc2)c1 . Is its growth below 20%?
*A* Satisfied

*Q* A record lists COc1cc(NC(=O)CCSc2nc3ccc(Cl)cc3c(=O)n2Cc2ccccc2)cc(OC)c1OC . Is its growth below 20%?
*A* Not satisfied

*Q* A record lists C/C(=N\Nc1nc2ccccc2s1)c1ccncn1 . Is its growth below 20%?
*A* Satisfied

*Q* A record lists CS(=O)(=O)Nc1ccc(Nc2c3ccccc3nc3cc([N+](=O)[O-])ccc23)cc1 . Is its growth below 20%?
*A* Satisfied

*Q* A record lists CCN(CCCCCCCCCCN1CC(=O)N(CCCCCCCCCCN(CC)Cc2ccccc2OC)CC1=O)Cc1ccccc1OC . Is its growth below 20%?
*A* Satisfied
